Values compiled from ChEMBL document CHEMBL3997842.

- Measurement target: Voltage-dependent L-type calcium channel subunit alpha-1C (Homo sapiens, UniProt Q13936)
- Sequence (Q13936 whole entry): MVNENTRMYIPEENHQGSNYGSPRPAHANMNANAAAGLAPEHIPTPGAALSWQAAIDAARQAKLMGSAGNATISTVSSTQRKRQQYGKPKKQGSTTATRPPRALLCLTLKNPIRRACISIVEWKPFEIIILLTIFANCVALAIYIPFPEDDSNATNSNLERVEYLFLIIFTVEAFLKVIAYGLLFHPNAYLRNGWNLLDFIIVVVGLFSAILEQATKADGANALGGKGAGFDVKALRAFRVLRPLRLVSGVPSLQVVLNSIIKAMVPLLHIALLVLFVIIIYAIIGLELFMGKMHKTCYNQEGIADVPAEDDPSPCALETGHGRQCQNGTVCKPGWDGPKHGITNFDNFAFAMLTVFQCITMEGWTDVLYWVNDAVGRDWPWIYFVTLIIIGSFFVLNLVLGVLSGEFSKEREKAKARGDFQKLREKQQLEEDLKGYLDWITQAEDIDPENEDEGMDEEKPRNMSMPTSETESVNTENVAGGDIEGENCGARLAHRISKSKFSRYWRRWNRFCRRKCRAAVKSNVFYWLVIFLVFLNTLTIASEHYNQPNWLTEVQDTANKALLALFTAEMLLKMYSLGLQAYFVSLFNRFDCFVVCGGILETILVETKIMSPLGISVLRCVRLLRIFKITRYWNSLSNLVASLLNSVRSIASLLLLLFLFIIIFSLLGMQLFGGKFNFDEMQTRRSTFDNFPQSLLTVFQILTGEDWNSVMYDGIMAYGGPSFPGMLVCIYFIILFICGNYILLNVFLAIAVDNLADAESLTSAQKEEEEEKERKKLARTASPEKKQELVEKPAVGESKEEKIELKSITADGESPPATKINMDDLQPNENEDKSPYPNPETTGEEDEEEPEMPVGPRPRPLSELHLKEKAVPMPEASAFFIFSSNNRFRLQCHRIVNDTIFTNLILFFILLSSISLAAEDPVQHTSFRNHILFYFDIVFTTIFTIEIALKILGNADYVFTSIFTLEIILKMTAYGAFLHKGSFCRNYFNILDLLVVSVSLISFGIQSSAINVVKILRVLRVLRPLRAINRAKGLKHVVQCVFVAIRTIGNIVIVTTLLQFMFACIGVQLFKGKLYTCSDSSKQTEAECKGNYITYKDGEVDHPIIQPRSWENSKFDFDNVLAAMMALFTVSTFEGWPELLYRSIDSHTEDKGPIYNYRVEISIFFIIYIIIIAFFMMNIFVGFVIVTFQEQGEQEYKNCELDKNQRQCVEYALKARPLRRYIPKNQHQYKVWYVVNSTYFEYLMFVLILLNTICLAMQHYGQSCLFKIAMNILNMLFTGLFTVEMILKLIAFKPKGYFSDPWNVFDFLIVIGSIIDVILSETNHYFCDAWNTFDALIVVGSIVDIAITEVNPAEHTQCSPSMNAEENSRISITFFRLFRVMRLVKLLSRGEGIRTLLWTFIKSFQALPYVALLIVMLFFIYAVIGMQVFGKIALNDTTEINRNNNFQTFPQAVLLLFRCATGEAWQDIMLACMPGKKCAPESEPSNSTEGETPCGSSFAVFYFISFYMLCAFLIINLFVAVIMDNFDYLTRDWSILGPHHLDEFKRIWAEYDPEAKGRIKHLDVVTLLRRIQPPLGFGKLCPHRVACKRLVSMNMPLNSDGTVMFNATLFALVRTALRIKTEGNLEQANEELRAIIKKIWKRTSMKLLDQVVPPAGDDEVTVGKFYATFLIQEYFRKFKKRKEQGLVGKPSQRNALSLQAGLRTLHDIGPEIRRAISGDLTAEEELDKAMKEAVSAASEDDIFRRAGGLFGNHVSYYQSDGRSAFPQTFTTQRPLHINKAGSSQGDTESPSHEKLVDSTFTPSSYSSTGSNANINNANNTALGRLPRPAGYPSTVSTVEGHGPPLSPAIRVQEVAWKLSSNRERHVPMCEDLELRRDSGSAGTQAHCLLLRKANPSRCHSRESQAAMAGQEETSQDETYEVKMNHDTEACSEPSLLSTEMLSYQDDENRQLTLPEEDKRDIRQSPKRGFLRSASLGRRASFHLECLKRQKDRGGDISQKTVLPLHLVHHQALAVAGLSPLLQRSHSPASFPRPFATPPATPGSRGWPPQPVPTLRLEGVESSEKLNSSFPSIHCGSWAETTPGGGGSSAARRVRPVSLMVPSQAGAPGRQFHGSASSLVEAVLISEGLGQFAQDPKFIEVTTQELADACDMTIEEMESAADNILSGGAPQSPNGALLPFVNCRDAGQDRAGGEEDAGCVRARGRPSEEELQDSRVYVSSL
- Protocol description: Inhibition of Cav1.2 (unknown origin)

# Chemical structure, Comparative sign, IC50 / µM
records = [
    ("CC(C)[C@@]1(C(=O)O)CC[C@@](C)(c2nc(-c3ccc(C(=O)Nc4cc(C(F)(F)F)ccn4)cc3)c3c(N)nccn23)C1", "=", 8),
    ("Nc1nccn2c([C@@H]3CCC[C@H](C(=O)O)C3)nc(-c3ccc(C(=O)Nc4cc(C(F)(F)F)ccn4)cc3)c12", ">", 30),
    ("C[C@]1(C(=O)O)CCC[C@@](C)(c2nc(-c3ccc(C(=O)Nc4cc(C(F)(F)F)ccn4)cc3)c3c(N)nccn23)C1", "=", 13),
    ("C[C@]1(C(=O)O)CC[C@@](C)(c2nc(-c3ccc(C(=O)Nc4cc(C(F)(F)F)ccn4)cc3)c3c(N)nccn32)CC1", "=", 15),
    ("CCOc1cc(C(=O)Nc2cc(C(F)(F)F)ccn2)ccc1-c1nc(C23CCC(C(=O)O)(CC2)CC3)n2ccnc(N)c12", "=", 15),
    ("C[C@]1(C(=O)O)CC[C@@](C)(c2nc(-c3ccc(C(=O)Nc4cc(C(F)(F)F)ccn4)cc3)c3c(N)nccn23)C1", "=", 19),
]
